Assay: basal CRE-LacZ reporter activity in PC12 – cell-based, unstimulated, primary screen (AID 1145)
Conditions: no forskolin, luminescence, 4.5 h, higher = more signal, called active from +8 up or from −8 down
assay endpoint: z-score
No unit in the answer, please; the number alone is enough.

Worked cases, z-score given:
CCCC[C@H]1C[C@@H]1[C@@H]1N(P(=O)(c2ccccc2)c2ccccc2)[C@](CO)(c2ccccc2)CC12CC2	-0.561
COC(=O)C(CC#Cc1ccc2c(c1)[C@]1(C(=O)N2)[C@H](C(=O)N2CCCCCCC2)[C@H]2C(=O)O[C@H](c3ccccc3)[C@H](c3ccccc3)N2[C@@H]1c1ccccc1OCCO)C(=O)OC	-0.141
O=C1C[C@@](C(=O)O)(c2ccc([N+](=O)[O-])cc2)[C@@H](c2ccc(CO)cc2I)N1C1CCCCC1	-0.619
CCOC(=O)N1C(c2ccc(OCCCO)cc2)=NC(C(=O)OC)N1C(=O)OCC (configuration not stated)	0.139
COC(=O)[C@@]1(Cc2ccc(OC)cc2)[C@H]2c3cc(C(=O)N4CCCC4)n(C[C@H](O)CO)c3C[C@H]2CN1C(=O)c1ccccc1	-0.365

C#C[C@H]1Oc2ccccc2S(=O)(=O)N2CCC[C@@H]12 has a reported z-score of 0.126

Entry COCCCNC(=O)[C@@]1(Sc2ccc(C)cc2)CC(=O)N(Cc2ccccc2)[C@@H]1c1ccc(CO)cc1 ; z-score = -0.438

====

Test: growth effects on S. cerevisiae YJM789 – YJM789 clinical isolate, OD600, 24 h, basal, primary screen (AID 1089);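 also: growth of clinical yeast isolate S. cerevisiae YJM 789 seeded 1000 cells per well; test concentration not given here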
Settings: higher = more signal, called active from +8 up or from −8 down
assay endpoint: z-score
The answer should be a number; do not append a unit.

O=C(CS)NCCCCCCNC(=O)[C@H]1C[C@H]2C(=O)N3CCC[C@H]3C(=O)N2[C@H]1c1ccc(O)cc1	-0.637
CC(C)NC(=O)[C@@H]1c2ccccc2C(=O)N(C2CCCCC2)[C@H]1c1ccc(CO)cc1	-0.455
O=C(NCC(O)CO)[C@@]1(Cc2ccccc2)N=C(c2ccc(OCCCO)cc2)O[C@H]1c1ccccc1 (some centres not stated)	-0.738
Cc1ccc(N2C(=O)c3ccccc3[C@](C)(C(=O)NCCN3CCOCC3)[C@@H]2c2ccc(CO)cc2)nc1	0.0623
COc1ccc([Si](C)(C)[C@H]2[C@H](CC(=O)N(CCO)Cc3ccccc3)O[C@@]3(C(=O)N(Cc4cccc(N5C(=O)c6cccc7cccc5c67)c4)c4ccccc43)[C@@H]2C)cc1	-1.64
COCCOC(=O)N1C(=O)[C@@]2(c3cc(C#CCCO)ccc31)[C@H](c1ccc(O)cc1)N1[C@H](c3ccccc3)[C@H](c3ccccc3)OC(=O)[C@H]1[C@@H]2C(=O)N1CCCCCCC1	0.616

For record O=C1C2C=CC(C(O)c3ccccn3)N(Nc3ccccc3F)C2C(=O)N1c1ccccc1 (configuration not stated) the listed z-score is 0.839

====

Quick reference for composite z-score among some molecules
Test system: PRMT1 (protein arginine N-methyltransferase 1)
Assay: small molecules binding arginine methyltransferase PRMT1 – biochemical, small-molecule microarray, 635 nm fluorescence, primary screen (AID 1088);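 also: binding of Prmt1 protein to compounds spotted on small-molecule microarray slides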
Details: higher = more signal
Output: the number by itself.

Known results for molecules:
C=C(CCCC)C(=O)CC[C@H](OC(C)=O)c1ccc(CO)o1	1.47
CCOC(=O)C[C@H]1[C@H](OC(=O)c2cc3ccccc3oc2=O)[C@@H](NC(=O)c2ccc3ccccc3c2)c2cc(OCCCO)ccc2N1C(=O)c1ccccc1	1.13

Notebook: Cc1ccc(N2C(=O)c3ccccc3[C@@H](C(=O)NC(C)C)[C@@H]2c2ccc(CO)cc2)nc1 , composite z-score read as 0.528

molecule COCC1=C([C@H](O)CCc2ccccc2)[C@H](CO)[C@@H]2C(=O)N(Cc3ccccc3)C(=O)[C@@H]2C1 , composite z-score observed: -0.197

Values from PubChem BioAssay
